System: AR mRNA
Test: Antisense inhibition of human AR in HuVEC cells, single concentration (electroporation, qRT-PCR RTS3559)
Format: cell-based
Conditions: Table 19, 500 nM oligonucleotide, electroporation, approximately 24 hours, relative to untreated control
Oligonucleotides are written 5' to 3', each unit as a sugar letter and its base; * is a phosphorothioate linkage, no mark a phosphodiester; rarer units and linkages stand in square brackets, end groups in braces. Plain capitals give the bases only. k = constrained ethyl (cEt); [5mC] = 5-methylcytosine; d = 2'-deoxy (DNA)
Kind request: treat 40% as inclusive, so % inhibition at 40% or higher is satisfied, anything lower is not satisfied.

Observe how each entry below is paired with its result.
# Substance, Cat
data = [
    ("583799 (antisense kT*kG*k[5mC]*d[5mC]*dT*dT*d[5mC]*dG*dG*dA*dT*dA*d[5mC]*kT*kG*k[5mC]) [compound 583799]", "satisfied"),
    ("549458 (kG*kT*kT*dG*dA*dT*dT*dT*dA*dA*dT*dG*dG*kT*kT*kG) [compound 549458]", "satisfied"),
    ("583795 (antisense kT*kG*k[5mC]*dT*dG*dT*dT*dG*d[5mC]*dT*dG*dA*dA*kG*kG*kA) [compound 583795]", "satisfied"),
    ("583759 (antisense kG*k[5mC]*kT*dG*dT*dT*d[5mC]*d[5mC]*dT*d[5mC]*dA*dT*d[5mC]*k[5mC]*kA*kG) [compound 583759]", "not satisfied"),
    ("583797 (antisense kT*k[5mC]*kG*dG*dA*dT*dA*d[5mC]*dT*dG*d[5mC]*dT*dT*k[5mC]*k[5mC]*kT) [compound 583797]", "not satisfied"),
]

Req: % inhibition >= 40% for 583749 (antisense kA*kG*kG*dT*dG*d[5mC]*dT*dG*d[5mC]*dG*d[5mC]*dT*d[5mC]*kG*k[5mC]*kG) [compound 583749] ?
Resp: not satisfied

Req: % inhibition >= 40% for 583821 (k[5mC]*kA*kG*dA*dA*dA*dT*dG*dG*dT*d[5mC]*dG*dA*kA*kG*kT) [compound 583821] ?
Resp: satisfied

Req: % inhibition >= 40% for 583818 (antisense kT*kG*kG*dT*d[5mC]*dG*dA*dA*dG*dT*dG*d[5mC]*d[5mC]*k[5mC]*k[5mC]*k[5mC]) [compound 583818] ?
Resp: satisfied

Req: % inhibition >= 40% for 583802 (antisense k[5mC]*kT*k[5mC]*dG*d[5mC]*dT*d[5mC]*dT*d[5mC]*d[5mC]*d[5mC]*dG*d[5mC]*kT*kG*k[5mC]) [compound 583802] ?
Resp: not satisfied
